assay: Tmax in monkey at 3 mg/kg, po; type: ADME, organism-based, Macaca mulatta; set-up: dose 3 mg/kg, route oral; settings: rhesus monkey, in vivo
QUANTITY NAME: Tmax (h)

>  <COMPOUND>
Cc1c(Nc2ccc(C#N)cc2Cl)ncnc1O[C@H]1CC2CC[C@@H](C1)N2S(=O)(=O)C1CC1 (single isomer, unassigned)

>  <VALUE>
4.5

$$$$

###

test: Plasma concentration in lean mouse at 3 mg/kg, po after 60 mins; assay type: ADME, organism-based; parameters: dose 3 mg/kg, route oral

>  <MOLECULE>
Cc1c(Nc2ccc(C#N)cc2Cl)ncnc1O[C@H]1CC2CC[C@@H](C1)N2S(=O)(=O)C1CC1 (single isomer, unassigned)

>  <concentration at 1 h>
400 nM

$$$$
